testSystem: MAK (human) (UniProt P20794)
Sequence (P20794 whole entry, looked up): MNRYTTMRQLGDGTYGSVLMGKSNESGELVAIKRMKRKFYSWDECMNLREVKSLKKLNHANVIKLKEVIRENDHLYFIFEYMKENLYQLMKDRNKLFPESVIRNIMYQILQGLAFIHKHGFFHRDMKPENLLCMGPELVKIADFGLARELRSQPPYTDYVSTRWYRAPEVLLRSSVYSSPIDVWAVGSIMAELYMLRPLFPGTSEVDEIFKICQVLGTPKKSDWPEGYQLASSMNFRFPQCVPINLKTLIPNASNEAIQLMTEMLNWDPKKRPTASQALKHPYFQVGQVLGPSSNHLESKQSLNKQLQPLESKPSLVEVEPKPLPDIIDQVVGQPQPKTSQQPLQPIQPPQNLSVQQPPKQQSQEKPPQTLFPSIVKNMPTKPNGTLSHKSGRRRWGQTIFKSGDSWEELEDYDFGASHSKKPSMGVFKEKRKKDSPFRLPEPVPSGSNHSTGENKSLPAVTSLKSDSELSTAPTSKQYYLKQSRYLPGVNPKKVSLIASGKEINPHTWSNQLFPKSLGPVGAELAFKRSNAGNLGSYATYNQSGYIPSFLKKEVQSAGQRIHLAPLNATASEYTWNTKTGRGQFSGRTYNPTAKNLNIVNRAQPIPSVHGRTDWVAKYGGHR
testProtocol: KINOMEscan competition binding
conditionSet: compound 10.0 µM
reportedProperty: kinase still bound, per cent of control
Write the numeric value and append its unit.

Exam item: Give its kinase still bound, per cent of control value. Item: `Cn1cc(C2=C(c3ccc(Cl)cc3Cl)C(=O)NC2=O)c2ccccc21`
Marked response: 20%

Exam item: Field request: kinase still bound, per cent of control | item: `Cc1cnc(-c2cnc(NCCNc3ccc(C#N)cn3)nc2-c2ccc(Cl)cc2Cl)[nH]1`
Marked response: 80%

Exam item: So what does the record say about kinase still bound, per cent of control for `O=C1Nc2cc(Br)ccc2/C1=C1/Nc2ccccc2/C1=N\O` ?
Marked response: 0.8%

Further cases:
Exam item: Which kinase still bound, per cent of control value is on record for `COc1ccc(CNC(=O)Nc2ncc([N+](=O)[O-])s2)cc1` ?
Marked response: 94%

====

testSystem: IRAK1 (human)
testProtocol: KINOMEscan competition binding
conditionSet: compound 10.0 µM
Item-by-item account of kinase still bound, per cent of control
Numbers only here, please. The scale is %.

Exam item: Reported kinase still bound, per cent of control for `O=C1Nc2cc(Br)ccc2/C1=C1/Nc2ccccc2/C1=N\O` : what is it?
Marked response: 39

Exam item: Tell me the measured kinase still bound, per cent of control of `Cn1cc(C2=C(c3ccc(Cl)cc3Cl)C(=O)NC2=O)c2ccccc21` , please.
Marked response: 100

Exam item: Recorded kinase still bound, per cent of control of `Cc1cnc(-c2cnc(NCCNc3ccc(C#N)cn3)nc2-c2ccc(Cl)cc2Cl)[nH]1` , please.
Marked response: 100

--- query ---
Exam item: Suppose we examine the molecule `COc1ccc(CNC(=O)Nc2ncc([N+](=O)[O-])s2)cc1` ; what kinase still bound, per cent of control value has been reported?
Marked response: 100

====

Each entry below carries its recorded kinase still bound, per cent of control.
testSystem: DYRK1A (human) (UniProt Q13627)
testProtocol: KINOMEscan competition binding
conditionSet: compound 10.0 µM
Answer with the figure and its unit, nothing else.

Exam item: Sample `Cc1cnc(-c2cnc(NCCNc3ccc(C#N)cn3)nc2-c2ccc(Cl)cc2Cl)[nH]1` — what was its kinase still bound, per cent of control?
Marked response: 100%

More entries:
Exam item: Report kinase still bound, per cent of control for `COc1ccc(CNC(=O)Nc2ncc([N+](=O)[O-])s2)cc1` please.
Marked response: 100%

Exam item: Fill in the blank: the reported kinase still bound, per cent of control of `Cn1cc(C2=C(c3ccc(Cl)cc3Cl)C(=O)NC2=O)c2ccccc21` is ____.
Marked response: 2.3%

Exam item: Look up kinase still bound, per cent of control: `O=C1Nc2cc(Br)ccc2/C1=C1/Nc2ccccc2/C1=N\O`
Marked response: 59%

====

Below, each entry is listed alongside its reported kinase still bound, per cent of control.
testSystem: TTK (human)
testProtocol: KINOMEscan competition binding
conditionSet: compound 10.0 µM
Please respond with the number in % and leave the unit unwritten.

Guide cases for kinase still bound, per cent of control, answers given:
Exam item: What value of kinase still bound, per cent of control has been recorded for this entry: `Cn1cc(C2=C(c3ccc(Cl)cc3Cl)C(=O)NC2=O)c2ccccc21`
Marked response: 83

Exam item: Given the entry `O=C1Nc2cc(Br)ccc2/C1=C1/Nc2ccccc2/C1=N\O` , report its measured kinase still bound, per cent of control.
Marked response: 3.8

Exam item: // kinase still bound, per cent of control lookup, key: `Cc1cnc(-c2cnc(NCCNc3ccc(C#N)cn3)nc2-c2ccc(Cl)cc2Cl)[nH]1`
Marked response: 86

Further cases:
Exam item: Which kinase still bound, per cent of control is reported for this molecule? `COc1ccc(CNC(=O)Nc2ncc([N+](=O)[O-])s2)cc1`
Marked response: 100
